Experiment: ATG_SREBP_CIS: Attagene CIS-FACTORIAL HepG2 Assay for human Sterol Regulatory Element Binding (SREBP) (AID 2282962)
Conditions: HepG2 Attagene cis-factorial SREBP reporter, mRNA; actives raise or lower the signal
Activity calls are given as the source filed them. How the source made its calls: active means hit-call score of the fitted dose curve at least 0.9, where 1 is the maximum; inactive means score below 0.9.
Hi there, use one of these labels in your reply, thanks! true = active, false = inactive

- molecule: "C[C@]12CC[C@H](O)C[C@H]1CC[C@@H]1[C@@H]2C[C@@H](O)[C@]2(C)[C@@H](C3=CC(=O)OC3)CC[C@]12O"
  class_name: "true"
- molecule: "N#CCCCl"
  class_name: "false"
- molecule: "CCNCC"
  class_name: "false"
- molecule: "CC(Cc1ccc(C(C)(C)C)cc1)CN1C[C@@H](C)O[C@@H](C)C1 (stereo partly drawn)"
  class_name: "false"
- molecule: "CC(C)[C@@H](C(=O)O[C@@H](C#N)c1cccc(Oc2ccccc2)c1)c1ccc(Cl)cc1"
  class_name: "false"
- molecule: "CCC(=O)c1ccc(Cl)cc1"
  class_name: "false"

Query: Field: outcome | Entry: C=Cc1cccc(CCl)c1
Reply: false

Query: Could you please tell me the result logged for O=C(O)c1cc[c]([Hg][Cl])cc1 in this assay?
Reply: false

Query: Fill in: this test's call for COc1cc(OC)nc(Oc2cccc(Oc3nc(OC)cc(OC)n3)c2C(=O)O)n1 is ___
Reply: false

Query: Per the assay record, what outcome was assigned to O=C1C(Cl)=C(Cl)C(=O)C(Cl)=C1Cl ?
Reply: false

* * *

System: rat Monoamine Oxidase, MAO-A, Central (MAOAC), gene 29253
Assay: NVS_ENZ_rMAOAC: NovaScreen (NVS) Enzymatic Assay for rat Monoamine Oxidase, MAO-A, Central (MAOAC) (AID 2283243);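 further: potency refers to inhibition seen as signal drop below DMSO baseline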
Method: NVS_ENZ_rMAOAC is a biochemical, single-readout assay that uses extracted gene-proteins from Rat brain in a tissue-based cell-free assay. Measurements were taken 1.5 hours after chemical dosing in a 96-well plate.NVS_ENZ_rMAOAC is one of one assay component(s) measured or calculated from the NVS_ENZ_rMAOAC assay. […] This assay endpoint, NVS_ENZ_rMAOAC, was analyzed in the positive analysis fitting direction relative to DMSO as the negative control and baseline of activity. […]
Active and inactive are the calls of the source. The calls were made as follows: active = hit-call score of the fitted dose curve at least 0.9, where 1 is the maximum; inconclusive = response in the unintended direction; inactive = score below 0.9.
Please state which outcome applies, choosing from T (active), F (inactive)

Query: In this assay, the call recorded for CN1CN(C)CN(C)C1 was what?
Reply: F

Query: Lab log entry: CCCCC(CC)C(=O)OCCOCCOCCOC(=O)C(CC)CCCC (configuration not stated) — outcome as called in the assay?
Reply: F

Query: Call for entry O=C1OC2(c3ccccc31)c1cc(I)c(O)c(I)c1Oc1c2cc(I)c(O)c1I :
Reply: T

Query: Answer briefly: the call reported for CCCCCCCCCCCCCCCC[N+](C)(C)Cc1ccccc1 in this assay.
Reply: F

Query: What did this assay record as the result for CCNc1nc(N)nc(Cl)n1 ?
Reply: T

* * *

Read-out: Interleukin 6 (IL6), IL6 (gene 3569)
Test: LTEA_HepaRG_IL6: Life Technologies and Expression Analysis (LTEA) Assay for Interleukin 6 (IL6) using HepaRG (AID 2283509)
Details: mRNA level, 48 h; actives raise or lower the signal
Activity calls are given as the source filed them. How the source made its calls: active means hit-call score of the fitted dose curve at least 0.9, where 1 is the maximum; inactive means score below 0.9.

- query_smiles: "N#CCCCCC#N"
  outcome: "inactive"
- query_smiles: "O=[N+]([O-])c1ccc(Cl)cc1"
  outcome: "inactive"
- query_smiles: "c1cc[n+]2c(c1)-c1cccc[n+]1CC2"
  outcome: "inactive"
- query_smiles: "O=C(CCl)c1ccccc1"
  outcome: "inactive"

* * *

Read-out: Actin alpha 1 (ACTA1), ACTA1 (gene 58)
Test: BSK_MyoF_ACTA1: BioMAP Diversity Plus: MyoF Assay for Actin alpha 1 (ACTA1) Biomarker Activity (AID 2284244)
Conditions: primary human lung fibroblasts
Active and inactive are the calls of the source. The calls were made as follows: active = hit-call score of the fitted dose curve at least 0.9, where 1 is the maximum; inactive = score below 0.9.
readout_type: AC50

- molecule: "Oc1cc(Cl)ccc1Cl"
  AC50: "inactive"
- molecule: "CC1(C)[C@H](C(=O)O[C@H](C#N)c2cccc(Oc3ccccc3)c2)[C@@H]1C=C(Br)Br"
  AC50: "inactive"
- molecule: "CC(C)(C)C(=O)CCl"
  AC50: "inactive"
- molecule: "CC(C)(c1cc(Cl)c(O)c(Cl)c1)c1cc(Cl)c(O)c(Cl)c1"
  AC50: "6.18 µM (active)"
- molecule: "C=CCN(CC=C)C(=O)C(Cl)Cl"
  AC50: "inactive"
- molecule: "O=c1[nH]c(Cl)c(Cl)cc1Cl"
  AC50: "inactive"
- molecule: "O=C(O)CCCc1ccc(N(CCCl)CCCl)cc1"
  AC50: "inactive"
- molecule: "CC(C)CCCCCCCOC(=O)c1ccccc1C(=O)OCCCCCCCC(C)C"
  AC50: "inactive"

For reference, reported AC50 for Clc1ccc(-c2ccccc2)cc1 stands at inactive

For reference, reported AC50 for C=CC(=O)OCC(CC)CCCC (stereo not drawn) stands at inactive

get_value(item= O=S(=O)(c1ccccc1)c1ccccc1 , readout=AC50) returns inactive

The recorded AC50 for CCc1cc(C)cc(CC)c1-c1c(OC(=O)C(C)(C)C)n2n(c1=O)CCOCC2 is 20 µM (active)

Please fill in: AC50 reported for CCCCCCCCCCCC#N = 26.5 µM (active)

* * *

Test: BSK_KF3CT_SRB: Viability Assessment in the BioMAP Diversity Plus: KF3CT Assay (AID 2283069);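 further: total protein by sulforhodamine B staining as a cytotoxicity measure; read 24 h after compound addition; fitted for both signal gain and loss against DMSO baseline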
Details: primary human keratinocytes with fibroblasts
Active and inactive are the calls of the source. Rule for the calls: active = hit-call score of the fitted dose curve at least 0.9, where 1 is the maximum; inactive = score below 0.9.
Choose one outcome from this list and give only that: true (1) = active, false (0) = inactive

Answered cases to consult:
- compound: "Nc1ccc(-c2ccc(N)c(N)c2)cc1N"
  class_name: "false (0)"
- compound: "CC(C)COP(=O)(OCC(C)C)OCC(C)C"
  class_name: "false (0)"
- compound: "O=P1(NCCCl)OCCCN1CCCl (centres undefined)"
  class_name: "false (0)"

Query: Any idea what this test logged for Oc1cc(Cl)ccc1Cl ?
Reply: false (0)

Query: Dear colleague, could you share the recorded outcome for CCCC[N+](CCCC)(CCCC)CCCC when you have a moment?
Reply: false (0)

Query: Could you please tell me the result logged for O=[N+]([O-])O in this assay?
Reply: false (0)

* * *

Assay: ATG_MRE_CIS: Attagene CIS-FACTORIAL HepG2 Assay for human Metal Responsive Element (MRE) (AID 2282954)
Conditions: HepG2 MRE cis-reporter transcription, Attagene multiplex; actives raise or lower the signal
The source made the active and inactive calls. Rule for the calls: active = hit-call score of the fitted dose curve at least 0.9, where 1 is the maximum; inactive = score below 0.9.
readout_type: AC50

As a guide, the following entries are already answered.
- compound: "C=CC(=O)OCC(CC)CCCC (stereo not given)"
  AC50: "inactive"
- compound: "CCCCOC(=O)CCC(=O)OCCCC"
  AC50: "inactive"
- compound: "C=COCCCl"
  AC50: "inactive"
- compound: "Nc1ccccc1C(=O)Oc1ccc2ccccc2c1"
  AC50: "67.2 µM (active)"
- compound: "O=[N+]([O-])c1cc(C(F)(F)F)c(Cl)c([N+](=O)[O-])c1Cl"
  AC50: "5.11 µM (active)"

get_value(item= ClC1=C(Cl)[C@]2(Cl)[C@@H]3[C@@H](Cl)[C@H](Cl)C[C@@H]3[C@@]1(Cl)C2(Cl)Cl , readout=AC50) returns inactive

The reported value for COCC(=O)N(c1c(C)cccc1C)N1CCOC1=O in terms of AC50 is inactive

Entry under test: O=S(=O)(c1ccccc1)c1ccccc1 . Its AC50 was inactive

Entry N#CCCCl , AC50 reported as inactive

Lookup result for CCCCOP(=O)(O)OCCCC ; measured AC50: inactive

// recorded AC50 for CCCCCCCCCCCC#N : 136 µM (active)

# compound CC(C)C(=O)Cl ; its AC50 = inactive

AC50 for C[C@]12CCC(=O)C(O)=C1CC[C@@H]1[C@@H]2CC[C@]2(C)C(=O)CC[C@@H]12 is inactive

* * *

Molecular target: human RAR-related Orphan Receptor gamma (RORg), RORC (gene 6097) (UniProt P51449)
Sequence (P51449 whole entry, looked up): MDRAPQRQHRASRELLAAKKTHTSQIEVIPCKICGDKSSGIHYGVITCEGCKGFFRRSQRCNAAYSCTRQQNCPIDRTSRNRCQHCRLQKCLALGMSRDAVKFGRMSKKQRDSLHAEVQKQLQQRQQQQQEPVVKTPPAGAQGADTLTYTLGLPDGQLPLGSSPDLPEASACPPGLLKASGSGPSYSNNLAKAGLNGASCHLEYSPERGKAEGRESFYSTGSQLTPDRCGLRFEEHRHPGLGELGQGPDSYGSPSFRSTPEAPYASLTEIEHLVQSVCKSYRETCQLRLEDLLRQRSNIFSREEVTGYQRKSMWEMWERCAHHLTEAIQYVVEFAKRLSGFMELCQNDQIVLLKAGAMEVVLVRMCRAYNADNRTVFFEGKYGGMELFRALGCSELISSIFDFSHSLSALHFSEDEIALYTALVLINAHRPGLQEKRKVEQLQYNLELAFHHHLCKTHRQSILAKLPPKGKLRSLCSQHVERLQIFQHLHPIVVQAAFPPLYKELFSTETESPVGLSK
Assay: ATG_RORg_TRANS: Attagene TRANS-FACTORIAL HepG2 Assay for human RAR-related Orphan Receptor gamma (RORg) (AID 2283011)
Records with an inconclusive call do not appear. Active and inactive are the calls of the source. How the source made its calls: active means hit-call score of the fitted dose curve at least 0.9, where 1 is the maximum; inconclusive means response in the unintended direction; inactive means score below 0.9.
Parameter call: string, one of active, inactive

Query: # fetch the recorded call for C[N+](C)(C)CC(=O)O here
Reply: inactive

Query: Assay outcome for CCC1CCC(=O)O1 (stereo unspecified) : what was it?
Reply: inactive

Query: In this assay, the call recorded for [Cl-].[Cl-].[Cl-].[Yb+3] was what?
Reply: inactive

Query: Write down the call the test reported for this compound. Item: CN(C)C(=O)C(c1ccccc1)c1ccccc1
Reply: inactive

Query: What was the test verdict on O=C(O)C(Br)Br ?
Reply: inactive

Query: What call does the record list for CC(C)CCCCCCCOC(=O)c1ccccc1C(=O)OCCCCCCCC(C)C ?
Reply: inactive

Query: Could you please tell me the result logged for CCCOC(=O)c1ccccc1C(=O)OCCC in this assay?
Reply: inactive

Query: Field: outcome | Entry: CCN(CC)C(=S)S
Reply: inactive
